# System: MALME-3M melanoma
# method summary: NCI tumour cell line growth inhibition, 48 h; in the data active = GI50 below about 0.43 µM; inactive = the rest
Write down one outcome, taken from active, inactive

Incoming: Kindly provide the recorded test outcome for the following compound: COc1ccc(-c2cc(-c3ccc(Cl)cc3)nc(NCCCCNc3ccnc4cc(Cl)ccc34)n2)cc1
Outgoing: inactive

Incoming: Also c1ccc(-c2n(Cc3ccc4ccccc4c3)c3ccccc3[n+]2Cc2ccc3ccccc3c2)cc1 ?
Outgoing: active

Incoming: Also CCCCCCCCCCNCCSS(=O)(=O)O ?
Outgoing: inactive

Incoming: Also O=C(Nc1cc(F)c(F)cc1C(=O)O)c1ccc(-n2ccnc2)nn1 ?
Outgoing: inactive

Incoming: Also CC[C@H](C)[C@H](NC(=O)[C@H]1CCCCN1C)C(=O)N(C)[C@H](C[C@@H](OC(C)=O)c1cccc(C(=O)N[C@@H](Cc2ccccc2)C[C@H](C)C(=O)O)n1)C(C)C ?
Outgoing: inactive

----------
# System: SN12C renal
# method summary: NCI tumour cell line growth inhibition, 48 h
metric: TGI

Incoming: # returns recorded TGI (system: SN12C renal) for O=C(CSCC(=O)N/N=C\c1ccc(O)c(O)c1O)N/N=C\c1ccc(O)c(O)c1O
Outgoing: 59 µM

Incoming: Also Oc1[nH]c2ccccc2c1/C=c1/ccc2c(c1)N=C(c1ccc(C(F)(F)F)cc1)N=2 ?
Outgoing: 20.6 µM

Incoming: Also O=C(Nc1ccccc1)OC1OC(COC(=O)c2ccccc2)C(OC(=O)c2ccccc2)C1OS(=O)(=O)c1ccc([N+](=O)[O-])cc1 (stereo not given) ?
Outgoing: > 100 µM

Incoming: Also Cc1ccc(-c2nc(-c3nccc4ccccc34)oc2-c2ccccc2)cc1 ?
Outgoing: 62.7 µM

Incoming: Also O=c1[nH][nH]c(=O)n1/N=C/c1ccccc1 ?
Outgoing: > 100 µM

----------
What TGI was measured for each of the following?
# Test system: U251 CNS
# method summary: NCI tumour cell line growth inhibition, 48 h

Incoming: Query: TGI; subject: O=C(N/C(=C\c1ccccc1O)c1nc2ccccc2[nH]1)c1ccccc1
Outgoing: > 100 µM

Incoming: Also COc1ccc(C2C(C#N)=C(N)Oc3c2sc2c(Br)cccc32)cc1 (stereo unspecified) ?
Outgoing: 12.4 µM

Incoming: Also COc1ccc(CCNC(=O)c2ccccc2C2c3ccc(OCc4ccccc4)cc3Oc3cc(OCc4ccccc4)ccc32)cc1OC ?
Outgoing: > 100 µM

Incoming: Also [N-]=[N+]=NCCCn1c2c(c3ccc([N+](=O)[O-])cc3c1=O)C(=O)c1cc(-c3ccccc3)ccc1-2 ?
Outgoing: > 100 µM

Incoming: Also CNC(=O)c1c(F)cccc1Nc1nc(Nc2cc3c(cc2OC)CCN3C(=O)CN(C)C)nc2[nH]ccc12 ?
Outgoing: 6.61 µM

Incoming: Also O=C(Nc1ccccc1)OC1OC(COC(=O)c2ccccc2)C(OC(=O)c2ccccc2)C1OS(=O)(=O)c1ccc([N+](=O)[O-])cc1 (stereo unspecified) ?
Outgoing: > 100 µM

----------
# Tested on: NCI-H460 lung
Write down one outcome, taken from active, inactive

Incoming: Kindly provide the recorded test outcome for the following compound: CNC(=O)c1c(F)cccc1Nc1nc(Nc2cc3c(cc2OC)CCN3C(=O)CN(C)C)nc2[nH]ccc12
Outgoing: inactive

Incoming: Also COc1ccc2c(c1)/C(=C\c1c(-c3cc(OC)ccc3OC)nc3sccn13)C(=O)N2 ?
Outgoing: inactive

Incoming: Also O=C1NC2(CCCCC2)C(=O)N1CCN(CCCl)CCCl ?
Outgoing: inactive

Incoming: Also N=C(N)c1ccc(-c2ccc(-c3ccc4ccccc4c3)s2)s1 ?
Outgoing: inactive

Incoming: Also Cc1ccc(Cl)c(NS(=O)(=O)c2ccc(-c3cnc(C4CC4)o3)cc2)c1 ?
Outgoing: active

Incoming: Also O=C1Nc2ccccc2/C1=C\c1nc(-c2ccccc2F)n2ccccc12 ?
Outgoing: inactive

Incoming: Also Oc1[nH]c2ccccc2c1/C=c1/ccc2c(c1)N=C(c1ccc(C(F)(F)F)cc1)N=2 ?
Outgoing: inactive

Incoming: Also O=C(Nc1cc(F)c(F)cc1C(=O)O)c1ccc(-n2ccnc2)nn1 ?
Outgoing: inactive

Incoming: Also CC(=O)/C(Br)=C/c1ccc(Br)o1 ?
Outgoing: inactive

Incoming: Also O=C(NCCOCCOCCOCCNC(=O)c1cc2c(o1)C(=O)c1ccccc1C2=O)NC12CC3CC(CC(C3)C1)C2 ?
Outgoing: inactive

Incoming: Also O=C(/C=C/c1ccccn1)c1ccc(OCc2nnc(-c3ccc(Cl)cc3)o2)cc1 ?
Outgoing: inactive

Incoming: Also Clc1cccc(CNc2c3ccccc3nc3ccccc23)c1 ?
Outgoing: inactive

Incoming: Also CCCCCCCCCCNCCSS(=O)(=O)O ?
Outgoing: inactive

These data points were gathered from PubChem BioAssay (NCI).
